# experimental.system: GDP-bound KRAS wild-type protein (Homo sapiens, UniProt P01116)
# Sequence (P01116 whole entry): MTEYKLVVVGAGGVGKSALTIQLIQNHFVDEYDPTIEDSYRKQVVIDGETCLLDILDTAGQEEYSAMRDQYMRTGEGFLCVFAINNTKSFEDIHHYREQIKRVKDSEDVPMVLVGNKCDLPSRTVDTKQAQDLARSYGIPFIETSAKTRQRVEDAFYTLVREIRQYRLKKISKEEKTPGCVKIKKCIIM
# protocol.summary: Binding to KRAS by surface plasmon resonance (SPR), Single Cycle Kinetics
# condition.summary: SPR, Single Cycle Kinetics, GDP-bound KRAS wild-type protein; read-out: KRAS KD
Where a SMILES comes first, the peptide text is derived from it. Bridges are numbered along the chain shown (N, C = ends). [ ]: non-standard residue; d: D form. The star is where a group is joined. hPhe(3-Cl-4-CF3) = N[C@@H](CCc1ccc(C(F)(F)F)c(Cl)c1)C(=O)O; NPrPhe(4-CF3) = CCCN[C@@H](Cc1ccc(C(F)(F)F)cc1)C(=O)O; NMeGly(cPent) = CN[C@H](C(=O)O)C1CCCC1; Ac4c(3,3-Me2) = CC1(C)CC(N)(C(=O)O)C1; NMeD = CN[C@@H](CC(=O)O)C(=O)O; NMeL = CN[C@@H](CC(C)C)C(=O)O; Morpholide = C1CN(*)CCO1; Sar = CNCC(=O)O
attribute.measured: pKd
FYI, pKd means -log10 of a concentration in mol per litre.

Known results for molecules:
molecule	pKd
CCO[C@@H]1C[C@H]2C(=O)NC3(CCC3)C(=O)N(C)[C@@H](C3CCCC3)C(=O)N(C)[C@H](C(=O)N3CCOCC3)CC(=O)N(C)[C@@H](Cc3cccc(C#N)c3)C(=O)N[C@@H]([C@@H](C)CC)C(=O)N(C)CC(=O)N(C)[C@H]3CCCCCN(C3=O)[C@@H](Cc3ccc(F)cc3)C(=O)N(C)CC(=O)N[C@@H](CCc3cc(F)c(C(F)(F)F)c(F)c3)C(=O)N2C1	10.03
CCC[C@H]1C(=O)N[C@@H]([C@@H](C)CC)C(=O)N(C)CC(=O)N(C)[C@H]2C/C=C\CCN(C2=O)[C@@H](Cc2ccc(C)cc2)C(=O)N(C)CC(=O)N[C@@H](CCc2ccc(C(F)(F)F)c(OC)c2)C(=O)N2C[C@H](OCC)C[C@H]2C(=O)NC2(CCC2)C(=O)N(C)[C@@H](C2CCCC2)C(=O)N(C)[C@H](C(=O)N(C)C)CC(=O)N1C	10.00
CCCOC[C@H]1C(=O)N[C@@H]([C@@H](C)CC)C(=O)N(C)CC(=O)N(C)[C@H]2C/C=C\CCN(C2=O)[C@@H](CC2CCC(F)(F)CC2)C(=O)N(C)CC(=O)N[C@@H](CCc2ccc(C(F)(F)F)c(OC)c2)C(=O)N2C[C@H](OCC)C[C@H]2C(=O)NC2(CC(C)(C)C2)C(=O)N(C)[C@@H](C(CC)CC)C(=O)N(C)[C@H](C(=O)N(C)C)CC(=O)N1C	9.01
CCCN1C(=O)CN(C)C(=O)CN(C)C(=O)[C@H]([C@@H](C)OC)NC(=O)[C@H](CC(C)C)N(C)C(=O)C[C@@H](C(=O)N2CCOCC2)N(C)C(=O)[C@H](C2CCCC2)N(C)C(=O)C2(CC(C)(C)C2)NC(=O)[C@@H]2CCCN2C(=O)[C@H](CCc2ccc(C(F)(F)F)c(Cl)c2)NC(=O)CN(C)C(=O)[C@@H]1Cc1ccc(C(F)(F)F)cc1 [PP1963] ([NMeL]T(Me)[Sar][Sar][NPrPhe(4-CF3)][Sar][hPhe(3-Cl-4-CF3)]P[Ac4c(3,3-Me2)][NMeGly(cPent)][NMeD]-Morpholide; lactam N-11)	9.74
CCCN(C)C(=O)[C@@H]1CC(=O)N(C)[C@@H](CC(C)C)C(=O)N[C@@H]([C@@H](C)OC)C(=O)N(C)CC(=O)N(C)[C@H]2C/C=C\CCN(C2=O)[C@@H](Cc2ccc(C(F)(F)F)cc2)C(=O)N(C)CC(=O)N[C@@H](CCc2cc(F)c(C(F)(F)F)c(F)c2)C(=O)N2C[C@H](OCC)C[C@H]2C(=O)NC2(CC(C)(C)C2)C(=O)N(C)[C@@H](C2CCCC2)C(=O)N1C	9.54

Q: What pKd value was documented for this molecule, `CCO[C@@H]1C[C@H]2C(=O)NC3(CC(C)(C)C3)C(=O)N(C)[C@@H](C(CC)CC)C(=O)N(C)[C@H](C(=O)N(C)C)CC(=O)N(C)[C@@H](CC3CC3)C(=O)N[C@@H]([C@@H](C)CC)C(=O)N(C)CC(=O)N(C)[C@H]3C/C=C\CCN(C3=O)[C@@H](Cc3ccc(C(F)(F)F)cc3)C(=O)N(C)CC(=O)N[C@@H](CCc3ccc(C(F)(F)F)c(Cl)c3)C(=O)N2C1` ?
Ans: 9.59
